target: human SGLT1 (Homo sapiens (Human)); assay: SGLT1 inhibitory activity: 14C-AMG uptake into CHO-K1 cell line stably expressing human SGLT1; type: cell-based; conditions: CHO-K1, at 0.3 uM
Sequence (P13866 whole entry): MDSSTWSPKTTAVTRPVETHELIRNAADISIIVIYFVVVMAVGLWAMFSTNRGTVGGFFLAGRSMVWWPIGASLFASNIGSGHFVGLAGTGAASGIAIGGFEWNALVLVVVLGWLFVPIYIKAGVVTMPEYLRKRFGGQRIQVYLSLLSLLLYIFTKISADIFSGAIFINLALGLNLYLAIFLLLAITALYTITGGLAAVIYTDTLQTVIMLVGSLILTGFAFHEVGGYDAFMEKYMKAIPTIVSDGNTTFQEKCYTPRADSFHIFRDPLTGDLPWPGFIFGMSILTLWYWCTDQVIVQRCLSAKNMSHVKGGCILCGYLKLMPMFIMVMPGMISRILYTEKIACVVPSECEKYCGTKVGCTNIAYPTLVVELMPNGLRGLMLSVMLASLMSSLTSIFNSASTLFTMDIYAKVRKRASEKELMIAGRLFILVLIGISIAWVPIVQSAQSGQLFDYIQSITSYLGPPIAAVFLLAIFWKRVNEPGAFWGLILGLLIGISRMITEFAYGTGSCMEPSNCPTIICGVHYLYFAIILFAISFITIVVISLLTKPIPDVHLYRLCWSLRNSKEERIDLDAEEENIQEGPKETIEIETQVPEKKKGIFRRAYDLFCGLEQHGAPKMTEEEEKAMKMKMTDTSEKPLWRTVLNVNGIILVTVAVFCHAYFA
Quantity Name: inhibition at 0.3 µM (%)

In [3]: df
Out[3]:
                                   compound  unit_spec  reported
0  O=C1C[C@@H](C(=O)Nc2cc(-c3cccc(OC(F)(F)F)c3)n(CC3CCOCC3)n2)CN1 [Example 199]          %        40
1  CCCc1cccc(-c2cc(NC(=O)[C@@H]3CN(CC)C(=O)N3)nn2-c2ccccc2)c1 [Example 329]          %        35
2  CCCc1cccc(-c2cc(NC(=O)[C@@H]3CNC(=O)N3C(C)C)nn2-c2ccccc2)c1 [Example 327]          %        15
3  CC(C)S(=O)(=O)c1cccc(-c2cc(NC(=O)[C@@H]3CNC(=O)C3)nn2-c2ccccc2)c1 [Example 568]          %        27
4  O=C1C[C@@H](C(=O)Nc2cc(-c3cccc(OC(F)(F)F)c3)n(-c3ccc(F)cc3Cl)n2)CN1 [Example 192]          %         6

a = CCCc1cccc(-c2cc(NC(=O)[C@@H]3CNC(=O)N3CC(=O)O)nn2-c2ccccc2)c1 [Example 347]
b = CCCc1cccc(-c2cc(NC(=O)[C@H]3CNC(=O)N3CC(=O)O)nn2-c2ccccc2)c1 [Example 348]
Prompt line: // compare: a vs b , metric inhibition at 0.3 µM, want the smaller Answer by quoting the chosen item's label.
Response line: a
(a: 11%, b: 26%)

* * *

target: UniProt P13866; test: SGLT1 inhibitory activity: 14C-AMG uptake into CHO-K1 cell line stably expressing human SGLT1; format: cell-based; conditions: 14C-AMG uptake, CHO-K1 cells expressing human SGLT1
Quantity Name: IC50 (nM)

Sample records with IC50:
>>> print(df.to_string())
                                   compound  reported
0  Cc1cc(F)ccc1-n1nc(NC(=O)[C@H]2CNC(=O)[C@@H]2C)cc1-c1cccc(OC(F)(F)F)c1 [Example 196]       4.8
1  O=C1C[C@@H](C(=O)Nc2cc(-c3cccc(C(F)(F)F)c3)n(-c3ccccc3Cl)n2)CN1 [Example 205]       3.6
2  O=C1C[C@@H](C(=O)Nc2cc(-c3cccc(OC(F)(F)F)c3)n(-c3cccc(Cl)c3)n2)CN1 [Example 106]       6.8
3  CCC(F)(F)c1cccc(-c2cc(NC(=O)C3CCC(=O)NC3)nn2-c2cccc(F)c2)c1 (single isomer, unassigned) [Example 171]       8.3

a = Cc1ccc(-n2nc(NC(=O)[C@H]3CNC(=O)C3)cc2-c2cccc(OCC(F)(F)F)c2)cc1 [Example 216]
b = CCCc1cccc(-c2cc(NC(=O)[C@H]3CNC(=O)C3)nn2-c2cccc(F)c2)c1 [Example 103]
c = CCC(F)(F)c1cccc(-c2cc(NC(=O)[C@H]3CNC(=O)[C@@H]3C)nn2C2CCOCC2)c1 [Example 179]
Prompt line: Please order the records by their reported IC50, lowest number first. Returns: the labels arranged in the requested order.
Response line: b, a, c
(b: 5 nM, a: 8.7 nM, c: 19 nM)
